# System: Calu-3
# experiment: cell viability relative to DMSO; higher = less toxic
# conditionSummary: 72 h; 10000 nM
quantity: cell viability (%)
Respond with the bare value in %.

[
  {
    "compound": "O=C(Nc1cccc(Cl)c1)c1ccccn1",
    "systemName": "Calu-3",
    "cell viability / %": 102
  },
  {
    "compound": "O=C(O)c1ccc(OCCn2ccnc2)cc1 [dazoxiben]",
    "systemName": "Calu-3",
    "cell viability / %": 97.7
  },
  {
    "compound": "COc1cc(-n2cnc3cc(-c4ccc(Cl)cc4)sc3c2=O)ccc1OCCN1CCCC1",
    "systemName": "Calu-3",
    "cell viability / %": 89.3
  }
]

Now examine the next entry.
cell viability reported for this compound NCCCNCCCCNCCCN [spermine] : 104

====

Known drug sensitivity score of a selection of compounds
# Test system: HepG2
# experiment: drug sensitivity score (DSS) for viability; higher = more toxic; extreme values may be limits of the assay
# conditionSummary: 72 h
Just the number.

Solved entries (count: 2):
[
  {
    "compound": "CC(NCCc1ccc(O)cc1)C(O)c1ccc(O)cc1 (stereo not drawn)",
    "drug sensitivity score": 0
  },
  {
    "compound": "CC[C@H]1[C@@H](O)[C@@H]2[C@H](CC[C@]3(C)[C@@H]([C@H](C)CCOS(=O)(=O)O)CC[C@@H]23)[C@@]2(C)CC[C@@H](O)C[C@@H]12",
    "drug sensitivity score": 0
  }
]

Now examine the next entry.
drug sensitivity score reported for this compound Cc1cc(-c2cc(O)ccc2Cl)cc2nnc(Nc3ccc(OCCN4CCCC4)cc3)nc12 : 6

====

# Tested on: HepG2
# experiment: relative viability EC50 (midpoint between 100% and the lowest measured viability); higher = less toxic
# conditionSummary: 72 h
quantity: relative viability EC50

[
  {
    "compound": "CC(=O)Nc1c(I)c(C(=O)O)c(I)c(N(C)C(C)=O)c1I [metrizoic-acid]",
    "relative viability EC50": "> 10 µM"
  },
  {
    "compound": "Cn1c(COP(=O)(NCCBr)NCCBr)cnc1[N+](=O)[O-] [TH-302]",
    "relative viability EC50": "> 10 µM"
  },
  {
    "compound": "CCN(C)C(=O)Oc1cccc([C@H](C)N(C)C)c1 [rivastigmine]",
    "relative viability EC50": "> 10 µM"
  }
]

Now examine the next entry.
relative viability EC50 reported for this compound COc1cc(N2CCC(N)CC2)ccc1Nc1ncc(Cl)c(-c2c[nH]c3ccccc23)n1 [AZD3463] : 0.402 µM

====

# Tested on: Caco-2
# experiment: drug sensitivity score (DSS) for viability; higher = more toxic; extreme values may be limits of the assay
# conditionSummary: 72 h
quantity: drug sensitivity score
Just the number.

[
  {
    "compound": "CC(C)C[C@H](CN)CC(=O)O [PREGABALIN]",
    "drug sensitivity score": 0.3
  },
  {
    "compound": "COc1ccsc1CNCC[C@@]1(c2ccccn2)CCOC2(CCCC2)C1 [TRV130]",
    "drug sensitivity score": 0
  },
  {
    "compound": "CC(Cc1ccccc1)(NC(=O)CN)c1ccccc1 (stereo not drawn) [remacemide]",
    "drug sensitivity score": 0
  },
  {
    "compound": "Cc1c(NC(=O)OC[C@@H]2COCCN2)cn2ncnc(Nc3ccc4c(cnn4Cc4cccc(F)c4)c3)c12",
    "drug sensitivity score": 3
  },
  {
    "compound": "CCC(C)(Oc1ccc(C2(c3ccc(OC(C)(CC)C(=O)O)cc3)CCCCC2)cc1)C(=O)O (stereo not drawn) [clinofibrate]",
    "drug sensitivity score": 0
  },
  {
    "compound": "COc1cc(N2CCC(N)CC2)ccc1Nc1ncc(Cl)c(-c2c[nH]c3ccccc23)n1 [AZD3463]",
    "drug sensitivity score": 8
  }
]

drug sensitivity score reported for this compound O=C(CCCc1ccc(-c2ccccc2F)cc1)Nc1ccc(O)cc1 [CMPD-1] : 0.8

drug sensitivity score reported for this compound OCCNCCCOc1cccc(Cl)c1Cl [2,3-DCPE] : 1.5
